- TARGET_OR_TEST_SYSTEM: T1, hIL2-DM-his (human, UniProt P60568 21-153)
- T1 construct: expressed in ExpiCHO-S cells, nickel-column purified; also called hIL-2 mutein containing two point mutations K64G and N90R (with a his-tag); not shown: his-tag
- T1 sequence (P60568 21-153 K84G/N110R): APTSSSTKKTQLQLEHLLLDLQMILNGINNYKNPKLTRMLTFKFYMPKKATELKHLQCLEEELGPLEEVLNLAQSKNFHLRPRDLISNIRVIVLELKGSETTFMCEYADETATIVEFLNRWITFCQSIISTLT
- EXPERIMENT_DESCRIPTION: BLI ForteBio, Ab on Protein A sensor
pKd: −log10 of the molar value.
pKd overview
ASSAY_METRIC: pKd

# BINDER, VAL
rows = [
    ("K2G4 (antibody, V domains shown) VH: QVQLVQSGAEVKKPGATVKISCKVSGDTITAYYMHWVRQAPGQGLEWIGRIDPEDDSTKYAENFKGRVTITADTSTDTAYMELSSLRSEDTAVYYCTTVTFLYSRELRWFAYWGQGTLVTVSS VL: DIVLTQSPATLSLSPGERATLSCQASQYISNYLSWYQQKPGQAPRLLIYSATSLASGIPARFSGSRSGTDFTLTISSLEPEDFAVYYCLQHYSTPYTFGQGTKLEIK", 8.97),
    ("K4G2 (antibody, V domains shown) VH: QVQLVQSGAEVKKPGATVKISCKVSGDTITAYYMHWVRQAPGQGLEWIGRIDPEDDSTKYAENFKGRVTITADTSTDTAYMELSSLRSEDTAVYYCTTITFYYSRELRWFAYWGQGTLVTVSS VL: DIVLTQSPATLSLSPGERATLSCQASQYIGNYLSWYQQKPGQAPRLLIYSATSLASGIPARFSGSRSGTDFTLTISSLEPEDFAVYYCLQHYSTPYTFGQGTKLEIK", 8.43),
    ("K1G1 (antibody, V domains shown) VH: QVQLVQSGAEVKKPGATVKISCKVSGDTITAYYMHWVRQAPGQGLEWIGRIDPEDDSTKYAENFKGRVTITADTSTDTAYMELSSLRSEDTAVYYCTTVTFYYSRELRWFAYWGQGTLVTVSS VL: DIVLTQSPATLSLSPGERATLSCQASQYISNYLSWYQQKPGQAPRLLIYQATSLASGIPARFSGSRSGTDFTLTISSLEPEDFAVYYCLQHYSTPYTFGQGTKLEIK", 8.84),
    ("K2G8 (antibody, V domains shown) VH: QVQLVQSGAEVKKPGATVKISCKVSGDTITAYYMHWVRQAPGQGLEWIGRIDPEDDSTKYAENFKGRVTITADTSTDTAYMELSSLRSEDTAVYYCTTITFLYSRELRWFAYWGQGTLVTVSS VL: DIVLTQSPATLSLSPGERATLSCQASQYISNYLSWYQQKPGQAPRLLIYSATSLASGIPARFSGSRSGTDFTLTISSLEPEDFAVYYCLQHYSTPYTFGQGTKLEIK", 8.95),
    ("K3G1 (antibody, V domains shown) VH: QVQLVQSGAEVKKPGATVKISCKVSGDTITAYYMHWVRQAPGQGLEWIGRIDPEDDSTKYAENFKGRVTITADTSTDTAYMELSSLRSEDTAVYYCTTVTFYYSRELRWFAYWGQGTLVTVSS VL: DIVLTQSPATLSLSPGERATLSCQASQYIGNYLSWYQQKPGQAPRLLIYQATSLASGIPARFSGSRSGTDFTLTISSLEPEDFAVYYCLQHYSTPYTFGQGTKLEIK", 8.36),
]

Data origin: patent US20250346644A1
